Each recorded value in this set is attributed to patent US5981497A.

Parameter viability at 24 h, 100 µM: see the listing below.
protocol-details: Cytotoxicity on L929 at 24 hours (neutral red)
Type: cell-based
test-context: mouse, l929 cells, 10^-4M, read-out: Cellular Viability Rate
Put your answer as a value accompanied by its unit after it.

INSERT INTO measurements (molecule, reading) VALUES
  ('CC(CCCCCC/C=C\CCCCCCCC(=O)O)O[C@@H]1O[C@H](CO)[C@@H](O)[C@H](O)[C@H]1O[C@@H]1O[C@H](CO)[C@@H](O)[C@H](O)[C@H]1O (some centres unmarked) [Sophorolipid in Acid Form]', '102%');

Note: attention shifts to another entry.
Give the value of viability at 24 h, 100 µM reported for the following: CC1CCCCCC/C=C\CCCCCCCC(=O)O[C@H]2[C@H](O)[C@@H](O)[C@H](O[C@H]3[C@H](O1)O[C@H](CO)[C@@H](O)[C@@H]3O)O[C@@H]2CO (some centres unmarked) [Sophorolipid in Lactone Form] 87%

###

protocol-details: Cytotoxicity on L929 at 24 hours (neutral red)
Format: cell-based
test-context: mouse, l929 cells, 10^-2M, read-out: Cellular Viability Rate
Parameter viability at 24 h, 10000 µM: see the listing below.
Value expressed in %; do not type the unit.

INSERT INTO assay_data (compound, reading) VALUES
  ('CC(CCCCCC/C=C\CCCCCCCC(=O)O)O[C@@H]1O[C@H](CO)[C@@H](O)[C@H](O)[C@H]1O[C@@H]1O[C@H](CO)[C@@H](O)[C@H](O)[C@H]1O (some centres unmarked) [Sophorolipid in Acid Form]', 6.18);

Note: attention shifts to another entry.
Give the value of viability at 24 h, 10000 µM reported for the following: CC1CCCCCC/C=C\CCCCCCCC(=O)O[C@H]2[C@H](O)[C@@H](O)[C@H](O[C@H]3[C@H](O1)O[C@H](CO)[C@@H](O)[C@@H]3O)O[C@@H]2CO (some centres unmarked) [Sophorolipid in Lactone Form] 5.26

###

protocol-details: Cytotoxicity on NCTC2544 at 24 hours (neutral red)
Format: cell-based
test-context: human, nctc2544 cells, 10^-4M, read-out: Cellular Viability Rate
measurement-type: viability at 24 h, 100 µM (%)
Value expressed in %; do not type the unit.

INSERT INTO measurements (molecule, reading) VALUES
  ('CC(CCCCCC/C=C\CCCCCCCC(=O)O)O[C@@H]1O[C@H](CO)[C@@H](O)[C@H](O)[C@H]1O[C@@H]1O[C@H](CO)[C@@H](O)[C@H](O)[C@H]1O (some centres unmarked) [Sophorolipid in Acid Form]', 100);

Note: attention shifts to another entry.
Give the value of viability at 24 h, 100 µM reported for the following: CC1CCCCCC/C=C\CCCCCCCC(=O)O[C@H]2[C@H](O)[C@@H](O)[C@H](O[C@H]3[C@H](O1)O[C@H](CO)[C@@H](O)[C@@H]3O)O[C@@H]2CO (some centres unmarked) [Sophorolipid in Lactone Form] 85.2

###

protocol-details: in vitro
test-context: keratinocyte culture
Parameter viability at 100 µM: see the listing below.

INSERT INTO results (compound, reading) VALUES
  ('CC(CCCCCC/C=C\CCCCCCCC(=O)O)O[C@@H]1O[C@H](CO)[C@@H](O)[C@H](O)[C@H]1O[C@@H]1O[C@H](CO)[C@@H](O)[C@H](O)[C@H]1O (some centres unmarked) [Sophorolipid in Acid Form]', '98.7%');

Note: attention shifts to another entry.
Give the value of viability at 100 µM reported for the following: CC1CCCCCC/C=C\CCCCCCCC(=O)O[C@H]2[C@H](O)[C@@H](O)[C@H](O[C@H]3[C@H](O1)O[C@H](CO)[C@@H](O)[C@@H]3O)O[C@@H]2CO (some centres unmarked) [Sophorolipid in Lactone Form] 99.1%
